Listed here: items and their measured ED50.
# Test system: morphine effect
# PROCEDURE DETAILS: Narcotic antagonist activity, modified rat tail flick test
# Assay type: in vivo, rats (male albino Wistar)
# CONDITION CONTEXT: Rattus norvegicus, ip; rats, test drug i.p. 10 minutes before ED80 dose of morphine s.c.; Table I; read-out: AD50 (the source's name)
Where a name gives a salt, the structure may show the parent alone.
ASSAY METRIC: ED50 (mg/kg)

>>> number("C[C@@H]1[C@H]2[C@H]3Cc4ccc(O)c5c4[C@@]2(CCN3CC2CCC2)[C@@H](O5)C(=O)[C@H]1C")
2.5
>>> number("O=C1CC[C@H]2[C@H]3Cc4ccc(O)c5c4[C@@]2(CCN3CC2CC2)[C@H]1O5")
0.19
>>> number("CC[C@H]1CC(=O)[C@@H]2Oc3c(O)ccc4c3[C@@]23CCN(CC2CCCO2)[C@H](C4)[C@H]13.Cl (some centres unmarked)")
1.8
>>> number("C[C@H]1CC(=O)[C@@H]2Oc3c(O)ccc4c3[C@@]23CCN(CC2CCC2)[C@H](C4)[C@H]13.Cl")
1.9
>>> number("CC[C@H]1CC(=O)[C@@H]2Oc3c(OC)ccc4c3[C@@]23CCN(CC2CC2)[C@H](C4)[C@H]13.Cl")
0.78
>>> number("C[C@H]1C[C@H]2[C@H]3Cc4ccc(O)c5c4[C@@]2(CCN3CC2CCC2)[C@@H](O5)C1=O [TR-5404, Hydrochloride]")
13.2
>>> number("COc1ccc2c3c1O[C@H]1C(=O)[C@@H](C)C[C@H]4[C@@H](C2)N(CC2CC2)CC[C@]314 [TR-5394, Hydrochloride]")
1.6
>>> number("COc1ccc2c3c1O[C@H]1C(=O)[C@@H](C)[C@H](C)[C@H]4[C@@H](C2)N(CC2CC2)CC[C@@]341 [TR-5410, Hydrochloride]")
0.98
>>> number("C=CCN1CC[C@]23c4c5ccc(O)c4O[C@H]2C(=O)C[C@H](CC)[C@H]3[C@H]1C5.Cl")
0.58
>>> number("CC[C@H]1CC(=O)[C@@H]2Oc3c(O)ccc4c3[C@@]23CCN(CC2CC2)[C@H](C4)[C@H]13")
0.25
>>> number("C=CCN1CC[C@]23c4c5ccc(OC)c4O[C@H]2C(=O)C[C@H](CC)[C@H]3[C@H]1C5.Cl")
5.6
>>> number("CC[C@H]1CC(=O)[C@@H]2Oc3c(O)ccc4c3[C@@]23CCN(CC2CCC2)[C@H](C4)[C@H]13")
0.52

---

# Tested on: writhing
# PROCEDURE DETAILS: Acetic acid mouse writhing test (analgesic effects)
# Type: in vivo, mice (male CD-1)
# CONDITION CONTEXT: Mus musculus, sc, 0.25 h; mice, subcutaneous, acetic acid i.p. 15 minutes post drug; Table I; read-out: ED50
Listed here: items and their measured ED50.
ASSAY METRIC: ED50 (mg/kg)

>>> number("CC[C@H]1CC(=O)[C@@H]2Oc3c(O)ccc4c3[C@@]23CCN(CC2CCC2)[C@H](C4)[C@H]13")
9.2
>>> number("CC[C@@H]1CC(=O)[C@@H]2Oc3c(O)ccc4c3[C@@]23CCN(CC2CCC2)[C@H](C4)[C@H]13.Cl")
0.15
>>> number("CC[C@H]1CC(=O)[C@@H]2Oc3c(O)ccc4c3[C@@]23CCN(CC2CCCO2)[C@H](C4)[C@H]13.Cl (stereo partly shown)")
1.06
>>> number("CC[C@H]1CC(=O)[C@@H]2Oc3c(O)ccc4c3[C@@]23CCN(CC2CC2)[C@H](C4)[C@H]13")
7.8
>>> number("C[C@H]1C[C@H]2[C@H]3Cc4ccc(O)c5c4[C@@]2(CCN3CC2CC2)[C@@H](O5)C1=O")
0.42
>>> number("O=C1CC[C@H]2[C@H]3Cc4ccc(O)c5c4[C@@]2(CCN3CC2CC2)[C@H]1O5")
1.34
